For each record, write down the corresponding apparent KD of MS2 coat protein.
Test system: MS2 coat protein
Experiment: apparent KD of MS2 coat protein; designed switch direction (-1 OFF switch, 1 ON switch): -1; higher = weaker reporter binding
Conditions: Eterna round: R95; input ligand: none

Examples from the recorded data:
# SEQUENCE_RECORD, ASSAY_TARGET, apparent KD of MS2 coat protein
data = [
    ("AGAUGGCGAGGAUAUACAUGAGGAUCACCCAUGUGAGAAGAUAAAGUGAGGAAGAAAAGUAGAAGGCGCUGUCA [Mat - Exclusion 3 - Mod of Salish D23] (puzzle: Exclusion 3)", "MS2 coat protein", "45.1 nM"),
    ("GGCCCUAGGGUCAGAUGCACAAGCUUUUUGCUCGUUUUAACAUGAGGAUCACCCAUGUCUAGUGGAUCUGAUCGGGU [Indiso] (puzzle: Sensor v3, turn-off variant 2)", "MS2 coat protein", "17.4 nM"),
]

### Prompt Give its apparent KD of MS2 coat protein value. Item: UAAAAGGUAGGAUAUACGAAAAAAAAGGGUAGAAAAAAAACACAUGAGGAUCACCCAUGUAGAAGGACCAAAAC [salish99_ex2_r3_047] (puzzle: Exclusion 2)
### Response 30.3 nM

---

Tested on: MS2 coat protein
Assay: apparent KD of MS2 coat protein; designed switch direction (-1 OFF switch, 1 ON switch): 1; higher = weaker reporter binding
Conditions: input ligand: microRNA oligo, concentration not stated
READOUT: apparent KD of MS2 coat protein

Use the examples below as a reference point.
# SEQUENCE_RECORD, VALUE_MEASURED
rows = [
    ("GAGUGGCGGUUAGGAUAUACAGUGAUAAUGAUAGUAGAAGGAACUGACAUGAGGAUCACCCAUGUAGGACUAAUCCAGAGAGAG [Parity 31 - Jieux - Same State NG 1] (Eterna round: R96, puzzle: Same State NG 1)", "21.7 nM"),
    ("ACAUGAGGAUCACCCAUGUAUUUAUUUGAAUCUUAAGUUACGUAGGAUAUCGUGUAUACUAUCAUCGAGAAGGACGAUGUGAUA [JR_SSNG3_Sub068] (Eterna round: R96, puzzle: Same State NG 3)", "12.5 nM"),
    ("UUGUUUCGUCAUUAACAUGAGGAUCACCCAUGUAUUGACCCAGAGGAUAUGCAUGUUUGAUUGUAGCAGAAGGCUGAUUGUUGU [JR_SSNG3_Sub032] (Eterna round: R96, puzzle: Same State NG 3)", "27 nM"),
]

### Prompt Which apparent KD of MS2 coat protein reading was recorded for the sequence GGAAACUUGAGAGGAUAUGUAGAGGAUCACCCUACAGAAGGCUCAAAAGAGAGGAUAUGUAGAGGAUCACCCUACAGAAGGCUC [pwkr ssNG DX.11] (Eterna round: R96, puzzle: Same State NG 1) ?
### Response 23.7 nM

---

So I've got a bunch of sequences here, and I need their apparent KD of MS2 coat protein values.
Tested on: MS2 coat protein
Test: apparent KD of MS2 coat protein; designed switch direction (-1 OFF switch, 1 ON switch): 1; higher = weaker reporter binding
Conditions: input ligand: microRNA oligo, concentration not stated
Give bare numbers, in nM.

See these solved cases before continuing.
# SEQUENCE_RECORD, apparent KD of MS2 coat protein (nM)
records = [
    ("GGCAGGUGCAGGCUUGCUUGCACCUGGAAACAUGAGGAUCACCCAUGUUUGGGACAAGCUUUGCUCCUCGUCUUGUC [JL ViennaUCT Isusreraar mod 2] (Eterna round: R96, puzzle: Sensor for hsa-mir-208a)", 39.2),
    ("GGCCAGAGUCAAGGAUAUGCUACCGUUUCGGUAGCAGAAGGUGAUCACAUGAGGAUCACCCAUGUUUACUGCGAGAGUAUGGCC [JL SSNG1 3.67] (Eterna round: R96, puzzle: Same State NG 1)", 197),
    ("AAAAGACAUGAGGAUCACCCAUGUAAAAACAUAGGAGGAUAUGUCAUGAAAAAAGACUUGACAGAAGGCCUUUGUC [SS1 - 49] (Eterna round: R96, puzzle: Same State 1)", 156),
]

Would you mind giving apparent KD of MS2 coat protein for every sequence in the list below?
1. UGUACAUGAGGAUCACCCAUGUCUAGACAUGUUAAUAUAAUGUAGGAUAUAUAAAAUUUAAAUUAAUAGAAGGACAAUUUUUUU [JMF's solution 2] (Eterna round: R96, puzzle: Same State NG 3)
2. GGUGGGUUGCUACCGACACAUGAGGAUCACCCAUGUUUUGGGAAGGAUAUGGUACCUAUUUGGUACCAGAAGGUCCCGUUGGUG [salish99_SSNG3_r04_707] (Eterna round: R96, puzzle: Same State NG 3)

### Response
1. 155
2. 136
